- tested.on: T1, GARS, endogenous in H929 multiple myeloma cells (human, UniProt P41250 37-739, limits assumed)
- T1 construct: Native protein pulled down from H929 lysates; also called Glycyl-tRNA synthetase; GlyRS
- T1 sequence: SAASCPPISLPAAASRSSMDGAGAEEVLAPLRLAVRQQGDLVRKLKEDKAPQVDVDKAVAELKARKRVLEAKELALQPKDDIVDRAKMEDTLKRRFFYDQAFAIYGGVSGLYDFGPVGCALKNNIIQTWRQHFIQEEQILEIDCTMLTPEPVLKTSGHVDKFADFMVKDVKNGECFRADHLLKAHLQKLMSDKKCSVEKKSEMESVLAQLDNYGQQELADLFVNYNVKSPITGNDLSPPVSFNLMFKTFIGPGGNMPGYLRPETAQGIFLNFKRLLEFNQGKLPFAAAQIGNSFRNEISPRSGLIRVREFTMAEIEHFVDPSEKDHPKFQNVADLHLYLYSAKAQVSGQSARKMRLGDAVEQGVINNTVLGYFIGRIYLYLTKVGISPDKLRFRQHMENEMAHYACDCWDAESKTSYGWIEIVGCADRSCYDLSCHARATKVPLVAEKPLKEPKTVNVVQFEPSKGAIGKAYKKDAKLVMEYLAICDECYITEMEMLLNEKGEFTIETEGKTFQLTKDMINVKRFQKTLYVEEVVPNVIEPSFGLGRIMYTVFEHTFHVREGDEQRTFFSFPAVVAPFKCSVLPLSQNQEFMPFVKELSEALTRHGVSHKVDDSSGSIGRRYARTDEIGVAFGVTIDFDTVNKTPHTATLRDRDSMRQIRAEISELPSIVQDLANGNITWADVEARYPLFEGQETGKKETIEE
- experiment.description: flow cytometry, H929 + vehicle; None 2.74; surface target GARS putative
Here, each record is paired with measured Cells stained (%) data.
Express the result in % but write the number alone.

{"binder": "HW-28 chimeric rabbit-human IgG1 LA/LA/PG (antibody, V domains shown, Fc-silenced (L234A/L235A/P329G) IgG1, lambda; Alexa Fluor 647-labeled in single-step flow cytometry; Cluster C-45) VH: QKQLVESGGRLVTPGTPLTLTCTASGFSLSSNAMSWVRQAPGEGLQWIGTISSGGSTYYASWAKGRFTISKTSTTVTLKMTSLTTEDTATYFCARGADLHRLWGPGTLVTVSS VL: SFVLTQPASVQVNLGQTVSLTCTGKPLSRSFASWYQQKPGQAPVLVIYRDTSRPSGVPDRFSGSSSGNTATLTISGAQAGDEADYYCATSDGSGSSYQYVFGGGTQLTVTG", "observable": "Cells stained (%)", "result": 98.6}
{"binder": "HW-81 chimeric rabbit-human IgG1 LA/LA/PG (antibody, V domains shown, Fc-silenced (L234A/L235A/P329G) IgG1, lambda; Alexa Fluor 647-labeled in single-step flow cytometry; Cluster C-45) VH: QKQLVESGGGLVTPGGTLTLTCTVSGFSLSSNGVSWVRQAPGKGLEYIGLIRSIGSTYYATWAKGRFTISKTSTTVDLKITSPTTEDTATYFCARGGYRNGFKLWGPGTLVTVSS VL: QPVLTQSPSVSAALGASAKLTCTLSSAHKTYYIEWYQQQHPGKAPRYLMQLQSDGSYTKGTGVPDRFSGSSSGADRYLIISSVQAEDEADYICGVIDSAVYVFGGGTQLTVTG", "observable": "Cells stained (%)", "result": 99.7}
{"binder": "HW-8 chimeric rabbit-human IgG1 LA/LA/PG (antibody, V domains shown, Fc-silenced (L234A/L235A/P329G) IgG1, kappa; Alexa Fluor 647-labeled in single-step flow cytometry; Cluster C-45) VH: QSLEESGGRLVTPGTPLTLTCTVSGFSLSSYAMSWVRQAPGKGLEWIGAISTGGSTTYASWAKGRFTISKTSSTTVDLKMTSLTTEDTATYFCVRHFRLWGPGTLVTISS VL: QVLTQTPSSVSAAVGGTVTIKCQASQSIGSALAWFQQKPGQRPKLLIYRASNLASGVPSRFKGSGSGTEFALTISGVQREDAATYYCLGGAAAVWAFGAGTNVEIKR", "observable": "Cells stained (%)", "result": 84.7}
{"binder": "HW-56 chimeric rabbit-human IgG1 LA/LA/PG (antibody, V domains shown, Fc-silenced (L234A/L235A/P329G) IgG1, kappa; Alexa Fluor 647-labeled in single-step flow cytometry; Cluster C-45) VH: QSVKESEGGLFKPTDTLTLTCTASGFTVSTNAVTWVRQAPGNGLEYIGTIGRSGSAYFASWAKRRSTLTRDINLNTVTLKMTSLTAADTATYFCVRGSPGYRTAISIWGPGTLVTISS VL: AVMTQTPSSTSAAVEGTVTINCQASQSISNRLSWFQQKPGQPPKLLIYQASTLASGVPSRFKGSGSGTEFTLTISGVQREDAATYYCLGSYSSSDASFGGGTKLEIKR", "observable": "Cells stained (%)", "result": 99.5}
{"binder": "HW-45 chimeric rabbit-human IgG1 LA/LA/PG (antibody, V domains shown, Fc-silenced (L234A/L235A/P329G) IgG1, lambda; Alexa Fluor 647-labeled in single-step flow cytometry; Prototype of cluster C-45) VH: QKQLVESGGRLVTPGTPLTLTCTVSGFSLSSYAMGWFRQAPGKGLEWIGIINSYGSTYYASWAKGRFTISKTSTTVDLKITSPTTEDTATYFCGRRIGSARFDPWGPGTLVTVSS VL: SFVLTQPASVQVNLGQTVSLTCTADTLSRSYASWYQQKPGQAPVLLIYRDTRRPSGVPDRFSGSSSGNTATLTISGAQAGDEADYYCATSDGSGSSYRLVFGGGTQLTVTG", "observable": "Cells stained (%)", "result": 96.8}

*Q* Request the reported Cells stained (%) associated with HW-16 chimeric rabbit-human IgG1 LA/LA/PG (antibody, V domains shown, Fc-silenced (L234A/L235A/P329G) IgG1, kappa; Alexa Fluor 647-labeled in single-step flow cytometry; Cluster C-45) VH: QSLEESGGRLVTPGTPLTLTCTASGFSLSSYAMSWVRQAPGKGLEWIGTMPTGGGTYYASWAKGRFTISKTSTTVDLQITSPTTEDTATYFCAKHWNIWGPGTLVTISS VL: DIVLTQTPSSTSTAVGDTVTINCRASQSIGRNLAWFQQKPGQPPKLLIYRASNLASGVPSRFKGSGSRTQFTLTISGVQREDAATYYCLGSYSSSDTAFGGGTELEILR
*A* 99.1
